- TARGET DESC: Steroid C26-monooxygenase (Mycobacterium tuberculosis (strain CDC 1551 / Oshkosh), UniProt P9WPP0)
- Sequence (P9WPP0 whole entry): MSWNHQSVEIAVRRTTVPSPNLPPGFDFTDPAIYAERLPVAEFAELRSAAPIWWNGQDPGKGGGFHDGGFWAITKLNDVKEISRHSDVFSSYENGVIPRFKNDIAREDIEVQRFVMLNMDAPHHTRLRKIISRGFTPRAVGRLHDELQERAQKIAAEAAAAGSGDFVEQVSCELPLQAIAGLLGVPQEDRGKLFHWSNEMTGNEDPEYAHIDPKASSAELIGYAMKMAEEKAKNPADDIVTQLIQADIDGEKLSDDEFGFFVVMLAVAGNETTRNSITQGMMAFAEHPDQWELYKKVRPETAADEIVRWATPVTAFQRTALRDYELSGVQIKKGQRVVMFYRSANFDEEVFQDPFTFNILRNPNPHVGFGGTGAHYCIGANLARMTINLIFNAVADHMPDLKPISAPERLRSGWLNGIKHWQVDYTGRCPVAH
- TEST PROTOCOL: Binding Assay
The reader will find reported Kd values listed item by item below.
Hi! Could you send only the number? It should be in µM, unit omitted.

Solved entries:
{"COMPOUND": "c1ccc(-c2c[nH]cn2)cc1", "Kd [µM]": 216}
{"COMPOUND": "CC(C)CCC[C@@H](C)[C@H]1CC[C@H]2[C@@H]3CC=C4C[C@@H](O)CC[C@]4(C)[C@H]3CC[C@]12C", "Kd [µM]": 0.11}
{"COMPOUND": "Clc1ccccc1C(c1ccccc1)(c1ccccc1)n1ccnc1", "Kd [µM]": 5.3}
{"COMPOUND": "OC(Cn1cncn1)(Cn1cncn1)c1ccc(F)cc1F", "Kd [µM]": 43.1}
{"COMPOUND": "CC(C)CCC[C@@H](C)[C@H]1CC[C@H]2[C@@H]3CCC4=CC(=O)CC[C@]4(C)[C@H]3CC[C@]12C", "Kd [µM]": 1.2}

Then this compound:
Measured Kd, `Clc1ccc(CO[C@@H](Cn2ccnc2)c2ccc(Cl)cc2Cl)c(Cl)c1` : 4.6
